Every entry's value here was drawn from paper PMC12670400.

Below, each entry is listed alongside its reported Ki.
Target: Kallikrein-related peptidase 5 (KLK5) (UniProt Q9Y337 23-293)
Sequence (Q9Y337 23-293): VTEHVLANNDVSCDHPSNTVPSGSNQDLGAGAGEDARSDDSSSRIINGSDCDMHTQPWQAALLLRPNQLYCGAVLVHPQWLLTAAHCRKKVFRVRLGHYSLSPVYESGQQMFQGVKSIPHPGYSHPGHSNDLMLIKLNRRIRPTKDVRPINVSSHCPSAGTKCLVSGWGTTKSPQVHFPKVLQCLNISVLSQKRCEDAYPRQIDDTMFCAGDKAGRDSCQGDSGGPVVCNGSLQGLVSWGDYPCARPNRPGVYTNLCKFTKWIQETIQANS
Test: enzyme inhibition assay (fluorogenic substrate); inhibition of KLK5 activity by the peptide, fluorogenic substrate Boc-VPR-AMC, n = 3; conditions in the Supporting Information
Settings: both partners purified
Bridge positions count the residues as written; N and C are the ends.
Unit nM implied. Number only.

{"columns": ["BINDER", "OBSERVED_MEASUREMENT"],
 "data": [
  ["cyclo(GFCTRSNPPECWPN) (disulfide 3-11 (inferred), SFTI scaffold grafted with residues of a LEKTI domain, glutamic acid at position 10; source: synthetic peptide (hydrazide peptide, cyclised via native chemical ligation, oxidised, RP-HPLC purified)) [LEKTI-grafted SFTI analogue, lead 7]", 11]
]}

Kindly consider the entry below.
Asked: Name the reported Ki value associated with the binder cyclo(GFCHRSYPPECWPN) (disulfide 3-11 (inferred), SFTI scaffold grafted with residues of a LEKTI or LEKTI-like domain, glutamic acid at position 10; also called compound 8; source: synthetic peptide (hydrazide peptide, cyclised via native chemical ligation, oxidised, RP-HPLC purified)) [SFTI analogue 8]
Given back: 8
